So I've got a bunch of compounds here, and I need their Percent Effect values.
target: Tyrosyl-tRNA synthetase, putative (Trypanosoma cruzi (strain CL Brener)); test: Trypanosoma cruzi tyrosyl tRNA synthetase (TcYRS) _High Tyrosine SOP; format: functional; parameters: scale not given: in the data most compounds retested in dose-response had high values; conditions: 30 µM
Answers are plain numbers, in %.

# lookup: Percent Effect of CCOc1cc(C(=O)N2CCCC(n3cncn3)C2)ccc1C (centres undefined)
0.99

Kindly give each listed record's Percent Effect.
1. Cc1csc2ncc(-c3ccnc(N4CCN(C)CC4)n3)c(=O)n12
2. Cc1ccccc1CSc1nc(N)cc(N2CCOC(C(N)=O)C2)n1 (centres undefined)
3. CS(=O)(=O)N1CCC2(CC1)CC(CC(=O)NC1CC1)c1ccccc12 (centres undefined)

[-3.68, 6.45, 4.74]

Kindly give each listed record's Percent Effect.
1. O=C(CCN1CCCN(c2nccs2)CC1)NCC1CCCCC1
2. Cc1ccc(C(=O)N2Cc3c(CN4CCCCC4)nn(C)c3C2)cc1C
3. CC(=O)N1CCC2(CC1)COCCN2CCN(C)C
4. Cc1[nH]ncc1CCCNC(=O)Nc1ccc(C#N)cc1
5. CCn1nnc2c1C(COC)CN(Cc1cccs1)C2 (centres undefined)
6. COCCN1C(=O)CCC12CCN(C(=O)CC1CC1)CC2
7. CC(=O)N1CCc2c(nc(-c3ccccn3)nc2N(C)CC(O)CO)C1 (centres undefined)
8. COCCN1C[C@@H]2CN(c3ncccn3)C[C@@H]2C1=O

6.84
-11.1
2.08
7.94
4.95
-0.966
14.4
76.2

Kindly give each listed record's Percent Effect.
1. CN(Cc1ccccc1Br)C(=O)Cn1nc(-c2ccc(F)cc2)oc1=O
2. CS(=O)(=O)Cc1cccc(C(=O)N2CCCC(n3cccn3)C2)c1 (centres undefined)
3. CC(C)n1[nH]c(=O)c2c1NC(=O)CC2c1cccc(OC(F)F)c1 (centres undefined)
4. Cc1ccc(NC2CCN(C(=O)Cc3csc(C)n3)CC2)nn1
5. Cc1nc(C)n(CC2CCCN2Cc2cn3c(C)cccc3n2)n1 (centres undefined)
6. O=C(NC1CC1)[C@H]1CC[C@@H]2[C@@H](CCN2c2ncc(F)cn2)O1
7. CC(C)c1n[nH]c(C(=O)Nc2ccnn2C(C)C)c1Br

-24.5
2.39
1.6
7.39
1.58
3.23
7.39

Kindly give each listed record's Percent Effect.
1. O=C(c1ccoc1)N1CCC2(CC1)C(=O)Nc1ccccc12
2. CC(=O)c1cccc(NC(=O)CN2CCCCC2C2OCCO2)c1 (centres undefined)
3. CNC(=O)[C@H]1C[C@@H]2CN(S(=O)(=O)c3ccccc3)C[C@@H]2N1C

[8.6, 5.94, 2.15]

Kindly give each listed record's Percent Effect.
1. CN1CCC/C1=N\S(=O)(=O)c1ccc(NC(=O)c2ccc(F)cc2)cc1
2. CCc1nc(C2CCCN(C(=O)c3ccc4c(c3)nnn4C)C2)no1 (centres undefined)

5.88
-10.5
